Biological target: mouse Nurr1 receptor (Mus musculus, UniProt Q06219)
Construct: On a cell line (N2A) endogenously expressing the mouse Nurr1 receptor
Sequence (Q06219 whole entry): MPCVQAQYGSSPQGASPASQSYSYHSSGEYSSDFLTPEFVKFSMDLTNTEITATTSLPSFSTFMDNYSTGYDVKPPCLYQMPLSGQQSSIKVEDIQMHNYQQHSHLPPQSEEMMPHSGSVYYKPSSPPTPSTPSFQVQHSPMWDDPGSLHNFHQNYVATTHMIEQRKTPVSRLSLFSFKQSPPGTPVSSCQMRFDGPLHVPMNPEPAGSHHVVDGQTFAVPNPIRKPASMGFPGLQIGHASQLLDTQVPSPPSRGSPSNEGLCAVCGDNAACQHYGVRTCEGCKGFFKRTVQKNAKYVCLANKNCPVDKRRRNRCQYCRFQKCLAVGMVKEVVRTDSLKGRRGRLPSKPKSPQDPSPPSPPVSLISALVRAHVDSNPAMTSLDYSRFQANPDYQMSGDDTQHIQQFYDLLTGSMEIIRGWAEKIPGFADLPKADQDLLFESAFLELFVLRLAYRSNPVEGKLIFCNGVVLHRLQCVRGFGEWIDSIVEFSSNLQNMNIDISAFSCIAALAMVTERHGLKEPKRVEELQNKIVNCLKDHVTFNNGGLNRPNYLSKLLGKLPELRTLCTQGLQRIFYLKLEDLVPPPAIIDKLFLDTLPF
Assay: In vitro activity on N2A cells (NBRE-luciferase reporter)
Settings: N2A cell line endogenously expressing mouse Nurr1, stably transfected with 8NBRE-luciferase; 24 hours incubation

compound: C=C(C)c1ccc2nc(C(=O)Nc3ccccc3)cn2c1 [Compound 32]
experimental.system: mouse Nurr1 receptor (Mus musculus, UniProt Q06219)
units.of.measure: nM
EC50: 0.06
--
compound: CC(C)(O)c1ccc2nc(C(=O)Nc3ccccc3)cn2c1 [Compound 4]
experimental.system: mouse Nurr1 receptor (Mus musculus, UniProt Q06219)
units.of.measure: nM
EC50: 0.66
--
compound: COc1ccc2nc(C(=O)Nc3ccccc3)cn2c1 [Compound 29]
experimental.system: mouse Nurr1 receptor (Mus musculus, UniProt Q06219)
units.of.measure: nM
EC50: 1.3
--
compound: O=C(Nc1ccccc1)c1cn2cc(-c3ccccc3)ccc2n1 [Compound 7]
experimental.system: mouse Nurr1 receptor (Mus musculus, UniProt Q06219)
units.of.measure: nM
EC50: 0.9
--
compound: O=C(Nc1ccccc1F)c1cn2cc(-c3cccc(CO)c3)ccc2n1 [Compound 67]
experimental.system: mouse Nurr1 receptor (Mus musculus, UniProt Q06219)
units.of.measure: nM
EC50: 0.7
--
compound: O=C(Nc1ccccc1)c1cn2cc(N3CCC3)ccc2n1 [Compound 70]
experimental.system: mouse Nurr1 receptor (Mus musculus, UniProt Q06219)
units.of.measure: nM
EC50: 0.16
--
compound: CN(C)c1ccc2nc(C(=O)Nc3cc(F)ccc3F)cn2c1 [Compound 58]
experimental.system: mouse Nurr1 receptor (Mus musculus, UniProt Q06219)
units.of.measure: nM
EC50: 1.3
--
compound: Cc1ccc2nc(C(=O)Nc3ccccc3)cn2c1C [Compound 43]
experimental.system: mouse Nurr1 receptor (Mus musculus, UniProt Q06219)
units.of.measure: nM
EC50: 0.3
--
compound: Cc1ccc2nc(C(=O)Nc3ccccc3)cn2c1 [Compound 19]
experimental.system: mouse Nurr1 receptor (Mus musculus, UniProt Q06219)
units.of.measure: nM
EC50: 0.6
